- Tested on: Streptococcus mitis
- assayNotes: Antibacterial activity against Streptococcus mitis BMS after 24 to 96 hrs by well microplate assay
- Assay type: functional
*1 amine or outer side, *2 acyl side, *3 side chain or, on linkers, in order; H or OH if unused. Where a SMILES comes first, the peptide text is derived from it. [ ]: non-standard residue; d: D form. The star is where a group is joined. X4 = O=C([C@H](Cc1ccc(N(Cc2ccccc2)Cc2ccccc2)cc1)N[*:1])[*:2]; Diphenylacetyl = O=C(C(c1ccccc1)c1ccccc1)*; Phe(4-NH2) = Nc1ccc(C[C@H](N)C(=O)O)cc1; Orn = NCCC[C@H](N)C(=O)O; Piv = CC(C)(C)C(=O)*
endpointName: MIC (µg/mL)

[[record]]
compound = "CC(C)C[C@@H]1NC(=O)[C@H](CCCN)NC(=O)[C@H](C(C)C)NC(=O)[C@@H]2CCCN2C(=O)[C@H](Cc2ccccc2)NC(=O)[C@H](CC(C)C)NC(=O)[C@H](CCCN)NC(=O)[C@H](C(C)C)NC(=O)[C@@H]2CCCN2C(=O)[C@H](Cc2ccc(N(Cc3ccccc3)Cc3ccccc3)cc2)NC1=O (cyclo(FPV[Orn]L[X4]PV[Orn]L))"
value = 64

[[record]]
compound = "CC(C)C[C@@H]1NC(=O)[C@H](CCCN)NC(=O)[C@H](C(C)C)NC(=O)[C@@H]2CCCN2C(=O)[C@H](Cc2ccccc2)NC(=O)[C@H](CC(C)C)NC(=O)[C@H](CCCN)NC(=O)[C@H](C(C)C)NC(=O)[C@@H]2CCCN2C(=O)[C@H](Cc2ccc(NC(=O)C(c3ccccc3)c3ccccc3)cc2)NC1=O (cyclo(FPV[Orn]L[Phe(4-NH2)](Diphenylacetyl)PV[Orn]L))"
value = 16

[[record]]
compound = "CC(C)C[C@@H]1NC(=O)[C@H](CCCN)NC(=O)[C@H](C(C)C)NC(=O)[C@@H]2CCCN2C(=O)[C@H](Cc2ccccc2)NC(=O)[C@H](CC(C)C)NC(=O)[C@H](CCCN)NC(=O)[C@H](C(C)C)NC(=O)[C@@H]2CCCN2C(=O)[C@H](Cc2ccc(NC(=O)C(C)(C)C)cc2)NC1=O (cyclo(FPV[Orn]L[Phe(4-NH2)](Piv)PV[Orn]L))"
value = 4


###

- System: Staphylococcus aureus
- assayNotes: Antibacterial activity against Staphylococcus aureus 7323 after 24 to 96 hrs by well microplate assay
- Format: functional
*1 amine or outer side, *2 acyl side, *3 side chain or, on linkers, in order; H or OH if unused. Where a SMILES comes first, the peptide text is derived from it. [ ]: non-standard residue; d: D form. The star is where a group is joined. X2 = C[N+](C)(C)c1ccc(C[C@H](N[*:1])C(=O)[*:2])cc1; X3 = O=C([C@H](Cc1ccc(NCc2ccccc2)cc1)N[*:1])[*:2]; Phe(4-NH2) = Nc1ccc(C[C@H](N)C(=O)O)cc1; Isobutyryl = CC(C)C(=O)*; Orn = NCCC[C@H](N)C(=O)O
Reported MIC is given for each of the following compounds.
endpointName: MIC (µg/mL)

[[record]]
compound = "CC(C)C[C@@H]1NC(=O)[C@H](CCCN)NC(=O)[C@H](C(C)C)NC(=O)[C@@H]2CCCN2C(=O)[C@H](Cc2ccccc2)NC(=O)[C@H](CC(C)C)NC(=O)[C@H](CCCN)NC(=O)[C@H](C(C)C)NC(=O)[C@@H]2CCCN2C(=O)[C@H](Cc2ccc(NCc3ccccc3)cc2)NC1=O (cyclo(FPV[Orn]L[X3]PV[Orn]L))"
inequalityoperator = ">"
value = 64

[[record]]
compound = "CC(C)C[C@@H]1NC(=O)[C@H](CCCN)NC(=O)[C@H](C(C)C)NC(=O)[C@@H]2CCCN2C(=O)[C@H](Cc2ccccc2)NC(=O)[C@H](CC(C)C)NC(=O)[C@H](CCCN)NC(=O)[C@H](C(C)C)NC(=O)[C@@H]2CCCN2C(=O)[C@H](Cc2ccc([N+](C)(C)C)cc2)NC1=O.[I-] (cyclo(FPV[Orn]L[X2]PV[Orn]L))"
inequalityoperator = "="
value = 64

[[record]]
compound = "CC(C)C[C@@H]1NC(=O)[C@H](CCCN)NC(=O)[C@H](C(C)C)NC(=O)[C@@H]2CCCN2C(=O)[C@H](Cc2ccccc2)NC(=O)[C@H](CC(C)C)NC(=O)[C@H](CCCN)NC(=O)[C@H](C(C)C)NC(=O)[C@@H]2CCCN2C(=O)[C@H](Cc2ccc(NC(=O)C(C)C)cc2)NC1=O (cyclo(FPV[Orn]L[Phe(4-NH2)](Isobutyryl)PV[Orn]L))"
inequalityoperator = "="
value = 32


###

- Tested on: Streptococcus mitis
- assayNotes: Antibacterial activity against Streptococcus mitis BMS after 24 to 96 hrs by well microplate assay
- Format: functional
*1 amine or outer side, *2 acyl side, *3 side chain or, on linkers, in order; H or OH if unused. Where a SMILES comes first, the peptide text is derived from it. [ ]: non-standard residue; d: D form. X2 = C[N+](C)(C)c1ccc(C[C@H](N[*:1])C(=O)[*:2])cc1; Orn = NCCC[C@H](N)C(=O)O
endpointName: MIC

[[record]]
molecule = "CC(C)C[C@@H]1NC(=O)[C@H](CCCN)NC(=O)[C@H](C(C)C)NC(=O)[C@@H]2CCCN2C(=O)[C@H](Cc2ccccc2)NC(=O)[C@H](CC(C)C)NC(=O)[C@H](CCCN)NC(=O)[C@H](C(C)C)NC(=O)[C@@H]2CCCN2C(=O)[C@H](Cc2ccc([N+](C)(C)C)cc2)NC1=O.[I-] (cyclo(FPV[Orn]L[X2]PV[Orn]L))"
value = "8 µg/mL"


###

- System: Streptococcus mitis
- assayNotes: Antibacterial activity against Streptococcus mitis BMS after 24 to 96 hrs by well microplate assay
- Format: functional
Where a SMILES comes first, the peptide text is derived from it. [ ]: non-standard residue; d: D form. The star is where a group is joined. X5 = O=C(C(c1ccccc1)(c1ccccc1)c1ccccc1)*; Phe(4-NH2) = Nc1ccc(C[C@H](N)C(=O)O)cc1; X1 = O=C(C1C2CC3CC(C2)CC1C3)*; Orn = NCCC[C@H](N)C(=O)O; PhAc = O=C(Cc1ccccc1)*
endpointName: MIC (mg/L)

[[record]]
compound = "CC(C)C[C@@H]1NC(=O)[C@H](CCCN)NC(=O)[C@H](C(C)C)NC(=O)[C@@H]2CCCN2C(=O)[C@@H](Cc2ccccc2)NC(=O)[C@H](CC(C)C)NC(=O)[C@H](CCCN)NC(=O)[C@H](C(C)C)NC(=O)[C@@H]2CCCN2C(=O)[C@@H](Cc2ccccc2)NC1=O [GRAMICIDIN S] (cyclo(L[dF]PV[Orn]L[dF]PV[Orn]))"
endpointname = "MIC"
value = 8

[[record]]
compound = "CC(C)C[C@@H]1NC(=O)[C@H](CCCN)NC(=O)[C@H](C(C)C)NC(=O)[C@@H]2CCCN2C(=O)[C@H](Cc2ccccc2)NC(=O)[C@H](CC(C)C)NC(=O)[C@H](CCCN)NC(=O)[C@H](C(C)C)NC(=O)[C@@H]2CCCN2C(=O)[C@H](Cc2ccc(NC(=O)C3C4CC5CC(C4)CC3C5)cc2)NC1=O (some centres undefined) (cyclo(FPV[Orn]L[Phe(4-NH2)](X1)PV[Orn]L))"
endpointname = "MIC"
value = 8

[[record]]
compound = "CC(C)C[C@@H]1NC(=O)[C@H](CCCN)NC(=O)[C@H](C(C)C)NC(=O)[C@@H]2CCCN2C(=O)[C@H](Cc2ccccc2)NC(=O)[C@H](CC(C)C)NC(=O)[C@H](CCCN)NC(=O)[C@H](C(C)C)NC(=O)[C@@H]2CCCN2C(=O)[C@H](Cc2ccc(NC(=O)Cc3ccccc3)cc2)NC1=O (cyclo(FPV[Orn]L[Phe(4-NH2)](PhAc)PV[Orn]L))"
endpointname = "MIC"
value = 8

[[record]]
compound = "CC(C)C[C@@H]1NC(=O)[C@H](CCCN)NC(=O)[C@H](C(C)C)NC(=O)[C@@H]2CCCN2C(=O)[C@H](Cc2ccccc2)NC(=O)[C@H](CC(C)C)NC(=O)[C@H](CCCN)NC(=O)[C@H](C(C)C)NC(=O)[C@@H]2CCCN2C(=O)[C@H](Cc2ccc(NC(=O)C(c3ccccc3)(c3ccccc3)c3ccccc3)cc2)NC1=O (cyclo(FPV[Orn]L[Phe(4-NH2)](X5)PV[Orn]L))"
endpointname = "MIC"
value = 64


###

- System: Streptococcus mitis
- assayNotes: Antibacterial activity against Streptococcus mitis ATCC 33399 after 24 to 96 hrs by well microplate assay
- Type: functional
Where a SMILES comes first, the peptide text is derived from it. [ ]: non-standard residue; d: D form. The star is where a group is joined. Phe(4-NH2) = Nc1ccc(C[C@H](N)C(=O)O)cc1; X1 = O=C(C1C2CC3CC(C2)CC1C3)*; Orn = NCCC[C@H](N)C(=O)O
endpointName: MIC

[[record]]
molecule = "CC(C)C[C@@H]1NC(=O)[C@H](CCCN)NC(=O)[C@H](C(C)C)NC(=O)[C@@H]2CCCN2C(=O)[C@H](Cc2ccccc2)NC(=O)[C@H](CC(C)C)NC(=O)[C@H](CCCN)NC(=O)[C@H](C(C)C)NC(=O)[C@@H]2CCCN2C(=O)[C@H](Cc2ccc(NC(=O)C3C4CC5CC(C4)CC3C5)cc2)NC1=O (stereo partly specified) (cyclo(FPV[Orn]L[Phe(4-NH2)](X1)PV[Orn]L))"
value = "16 µg/mL"


# credit: ChEMBL document CHEMBL1152538
